# studyTarget: recombinant Human Phosphodiesterase B2 (PDE4B2) (Homo sapiens)
# Sequence (Q07343 1-564 isoform Q07343-2): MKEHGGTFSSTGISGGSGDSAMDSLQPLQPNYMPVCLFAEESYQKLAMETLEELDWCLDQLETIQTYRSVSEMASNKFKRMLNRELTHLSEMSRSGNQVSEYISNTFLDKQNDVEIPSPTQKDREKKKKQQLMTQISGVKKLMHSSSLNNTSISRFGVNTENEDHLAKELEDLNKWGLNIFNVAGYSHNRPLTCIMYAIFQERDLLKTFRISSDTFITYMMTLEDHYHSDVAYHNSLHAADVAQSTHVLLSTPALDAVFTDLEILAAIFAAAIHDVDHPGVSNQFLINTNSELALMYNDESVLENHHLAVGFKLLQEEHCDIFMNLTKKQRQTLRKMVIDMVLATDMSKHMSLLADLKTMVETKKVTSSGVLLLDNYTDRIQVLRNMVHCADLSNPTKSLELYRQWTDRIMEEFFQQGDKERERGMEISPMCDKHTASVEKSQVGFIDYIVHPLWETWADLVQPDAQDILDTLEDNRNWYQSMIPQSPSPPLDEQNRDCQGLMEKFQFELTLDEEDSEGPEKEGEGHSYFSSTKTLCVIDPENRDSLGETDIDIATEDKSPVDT
# assayDetails: Human Phosphodiesterase B2 Radiometric Assay
# Format: biochemical
# recordedConditions: 0.1 μg/mL recombinant PDE4B2; preincubated at 30 C for 30 min; [3H]cyclic AMP 8 nM, stopped after 20 min; yttrium silicate SPA beads; read-out: PDE4B2 pIC50 (converted)
measuredAttribute: IC50

Reference set, count: 5
>>> val("Cc1cc(C)n2nc(C(=O)N[C@H]3CC[C@@H](NC(=O)c4cc(F)cnc4Oc4cccc(-c5ccc(CN6CCCN(CCO)CC6)cc5CN5CCOC[C@@H]5C)c4)CC3)cc2n1")
"0.0501 nM"
>>> val("Cc1nc(C(=O)N[C@H]2CC[C@@H](NC(=O)c3cc(F)cnc3Oc3cccc(-c4ccc(CCCNCCCO)cc4)c3)CC2)cs1")
"0.1 nM"
>>> val("C[C@@H]1CN(Cc2ccc(-c3cccc(Oc4ncc(F)cc4C(=O)N[C@H]4CC[C@@H](NC(=O)c5cc6n(n5)CCCC6)CC4)c3)c(CN3CCOCC3)c2)C[C@H](C)N1")
"0.0501 nM"
>>> val("Cc1cc(C(=O)N[C@H]2CC[C@@H](NC(=O)c3cc(F)cnc3Oc3cccc(-c4ccc(CCCN5CCCC5)cc4)c3)CC2)nn1C")
"0.0316 nM"
>>> val("CN(C)Cc1cc(O)ccc1-c1cccc(Oc2ncc(F)cc2C(=O)N[C@H]2CC[C@@H](NC(=O)c3nc4ccccc4s3)CC2)c1")
"0.1 nM"

Query for recombinant Human Phosphodiesterase B2 (PDE4B2) (Homo sapiens): what IC50 does the record show for Cc1nc(C(=O)N[C@H]2CC[C@@H](NC(=O)c3cc(F)cnc3Oc3cccc(-c4ccc(O)cc4CN4C[C@@H](C)O[C@@H](C)C4)c3)CC2)cs1 ?
0.1 nM
